Biological target: hCA IX (Homo sapiens, UniProt Q16790)
Assay: CA CO2 hydrase activity assay, tumor-associated isozyme hCA IX
Conditions: read-out: KI hCA IX; Table 2; catalytic domain of the human, cloned isozyme
readout: Ki (nM)

Recorded Ki, per entry:
{"columns": ["smiles text", "test result"],
 "data": [
  ["CCCCc1cc(-c2ccccc2)cc(-c2ccccc2)[n+]1CCc1ccc(S(N)(=O)=O)cc1", 120],
  ["CC(C)c1cc(-c2ccccc2)cc(C(C)C)[n+]1CCc1ccc(S(N)(=O)=O)cc1", 89],
  ["CCCc1cc(-c2ccccc2)cc(-c2ccccc2)[n+]1CCc1ccc(S(N)(=O)=O)cc1", 84],
  ["NS(=O)(=O)c1ccc(C[n+]2c(-c3ccccc3)cccc2-c2ccccc2)cc1", 106]
]}

(a) NS(=O)(=O)c1ccc(CC[n+]2c(-c3ccccc3)cccc2-c2ccccc2)cc1
(b) CCc1cc(-c2ccccc2)cc(CC)[n+]1-c1ccc(S(N)(=O)=O)cc1
Task: Task for the reader: decide whether a or b has the larger Ki. Please respond with the label that marks your chosen entry.
Result: a
(a: 81 nM, b: 43 nM)

====

Target: hCA I (Homo sapiens, UniProt P00915)
Construct: made in house; host or cells: Escherichia coli BL21 (DE3)
Sequence (P00915 whole entry): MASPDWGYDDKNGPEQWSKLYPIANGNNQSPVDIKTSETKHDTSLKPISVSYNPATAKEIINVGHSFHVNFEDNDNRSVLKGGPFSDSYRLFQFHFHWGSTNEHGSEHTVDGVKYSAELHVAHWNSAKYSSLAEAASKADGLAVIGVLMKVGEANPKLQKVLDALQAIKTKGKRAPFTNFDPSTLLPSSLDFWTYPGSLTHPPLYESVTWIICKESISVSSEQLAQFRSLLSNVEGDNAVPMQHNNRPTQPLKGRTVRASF
Experiment: CA esterase activity assay, isozyme hCA I
Type: biochemical
Conditions: Table 3; human (cloned) isozymes, esterase assay method; read-out: KI hCA I
readout: Ki (nM)

Recorded Ki, per entry:
{"columns": ["molecule", "readout", "test result"],
 "data": [
  ["NS(=O)(=O)c1nnc(NS(=O)(=O)c2ccc(-[n+]3c(-c4ccccc4)cccc3-c3ccccc3)cc2)s1 [Compound 88]", "Ki", 5],
  ["Cc1cc(C)[n+](-c2ccc(S(=O)(=O)Nc3nnc(S(N)(=O)=O)s3)cc2)c(C)c1 [Compound 71]", "Ki", 4]
]}

(P) CCCc1cc(-c2ccccc2)cc(-c2ccccc2)[n+]1-c1ccc(S(=O)(=O)Nc2nnc(S(N)(=O)=O)s2)cc1 [Compound 82]
(Q) Cc1cc(C)[n+](-c2ccc(S(=O)(=O)Nc3nnc(S(N)(=O)=O)s3)cc2)c(C)c1C [Compound 89]
Task: Task for the reader: decide whether P or Q has the larger Ki. Please respond with the label that marks your chosen entry.
Result: P
(P: 8 nM, Q: 3 nM)

====

System: human red cells
Settings: human, 60 min, 2 mM, pH 7.4
readout: [sulfonamide] in red blood cells, ES (µM)

Recorded [sulfonamide] in red blood cells, ES, per entry:
{"columns": ["compound", "target or test system", "[sulfonamide] in red blood cells, ES [µM]"],
 "data": [
  ["Nc1ccc(S(=O)(=O)Nc2nnc(S(N)(=O)=O)s2)cc1 [Compound 15]", "human red cells", 156],
  ["Cc1cc(C)[n+](-c2ccc(S(=O)(=O)Nc3nnc(S(N)(=O)=O)s3)cc2)c(C)c1 [Compound 71]", "human red cells", 0.5]
]}

(I) Cc1cc(C)[n+](-c2ccc(S(=O)(=O)Nc3nnc(S(N)(=O)=O)s3)cc2)c(C)c1C [Compound 89]
(II) CCc1cc(-c2ccccc2)cc(CC)[n+]1-c1ccc(S(=O)(=O)Nc2nnc(S(N)(=O)=O)s2)cc1 [Compound 76]
Task: Select the item whose [sulfonamide] in red blood cells, ES value is smaller, choosing between I and II . Please respond with the label that marks your chosen entry.
Result: I
